Where do these numbers come from? They come from PubChem BioAssay AID1963873.

- Tested on: 276233-004-R-J1-PDC KRAS spheroids with HUVEC/MSC, viability
- ASSAY_PROCEDURE: Anticancer human tumor 276233-004-R-J1-PDC patient-derived colon adenocarcinoma cell line growth inhibition [KRAS2]
- CONDITIONS_USED: compound 1 µM; active compounds read low
REPORTED_ENDPOINT: viability, T/C

• CC1(C)CCC(CN2CCN(c3ccc(C(=O)NS(=O)(=O)c4ccc(NCC5CCOCC5)c([N+](=O)[O-])c4)c(Oc4cnc5[nH]ccc5c4)c3)CC2)=C(c2ccc(Cl)cc2)C1 = 93.4% [middle of 5 runs]
• CCNC(=O)CC1N=C(c2ccc(Cl)cc2)c2cc(OC)ccc2-n2c(C)nnc21 (stereo not drawn) = 70.9% [middle of 5 runs]
• CCN1CCN(Cc2ccc(Nc3ncc(F)c(-c4cc(F)c5nc(C)n(C(C)C)c5c4)n3)nc2)CC1 = 106% [middle of 5 runs]
• CC(=O)OC12COC1CC(O)C1(C)C(=O)C(O)C3=C(C)C(OC(=O)C(O)C(NC(=O)OC(C)(C)C)c4ccccc4)CC(O)(C(OC(=O)c4ccccc4)C21)C3(C)C (stereo not drawn) = 94.5% [middle of 5 runs]
• COc1cc(Nc2ncc3c(n2)-c2ccc(Cl)cc2C(c2c(F)cccc2OC)=NC3)ccc1C(=O)O = 87.7% [middle of 5 runs]
• Cn1nccc1Nc1nccc(-c2cc3c(s2)C(C)(C)N(CCN2CCOCC2)C3=O)n1 = 79.7% [middle of 5 runs]
• O=C(c1cc(Cc2n[nH]c(=O)c3ccccc23)ccc1F)N1CCN(C(=O)C2CC2)CC1 = 89.5% [middle of 5 runs]
• COC(=O)c1ccc2c(C(=Nc3ccc(N(C)C(=O)CN4CCN(C)CC4)cc3)c3ccccc3)c(O)[nH]c2c1 = 86.2% [middle of 5 runs]

====

- Test system: 276233-004-R-J1-PDC KRAS spheroids with HUVEC/MSC, viability
- ASSAY_PROCEDURE: Anticancer human tumor 276233-004-R-J1-PDC cell line growth inhibition [KRAS2];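 note: cells exposed to agents for seven days before viability read; 100% = DMSO vehicle control wells and lower values mean fewer viable cells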
- CONDITIONS_USED: second compound 0.316 µM; first compound 1 µM; active compounds read low
Catalogue of viability, T/C readings, one per entry.
REPORTED_ENDPOINT: viability, T/C (%)

* CC1OCC2(CCN(c3cnc(Sc4ccnc(N)c4Cl)c(N)n3)CC2)C1N (stereo not drawn) + CNCc1ccccc1-c1csc(C(C)Nc2nc(C)nc3cc(OC)c(OC)cc23)c1 | 60.9
* O=C(c1cc(Cc2n[nH]c(=O)c3ccccc23)ccc1F)N1CCN(C(=O)C2CC2)CC1 + COc1cc2nc(C)nc(NC(C)c3cc(N)cc(C(F)(F)F)c3)c2cc1OC1CCOC1 | 88.9
* COC(=O)c1ccc2c(C(=Nc3ccc(N(C)C(=O)CN4CCN(C)CC4)cc3)c3ccccc3)c(O)[nH]c2c1 + CNCc1ccccc1-c1csc(C(C)Nc2nc(C)nc3cc(OC)c(OC)cc23)c1 | 74.5

====

- Tested on: 276233-004-R-J1-PDC KRAS spheroids with HUVEC/MSC, viability
- ASSAY_PROCEDURE: Anticancer human tumor 276233-004-R-J1-PDC cell line growth inhibition [KRAS2];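 note: cells exposed to agents for seven days before viability read; 100% = DMSO vehicle control wells and lower values mean fewer viable cells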
- CONDITIONS_USED: second compound 0.1 µM; first compound 0.1 µM; active compounds read low
REPORTED_ENDPOINT: viability, T/C (%)

- O=C(c1cc(Cc2n[nH]c(=O)c3ccccc23)ccc1F)N1CCN(C(=O)C2CC2)CC1 + CC1OCC2(CCN(c3cnc(Sc4ccnc(N)c4Cl)c(N)n3)CC2)C1N: 84.9
- COc1cc(Nc2ncc3c(n2)-c2ccc(Cl)cc2C(c2c(F)cccc2OC)=NC3)ccc1C(=O)O + COc1cc2nc(C)nc(NC(C)c3cc(N)cc(C(F)(F)F)c3)c2cc1OC1CCOC1: 78.9
- CC1COCCN1c1cc(-c2ccnn2C)c2ccnc(-c3ccn[nH]3)c2n1 (stereo not given) + COc1cc2nc(C)nc(NC(C)c3cc(N)cc(C(F)(F)F)c3)c2cc1OC1CCOC1: 75.8
- CC(=O)OC12COC1CC(O)C1(C)C(=O)C(O)C3=C(C)C(OC(=O)C(O)C(NC(=O)OC(C)(C)C)c4ccccc4)CC(O)(C(OC(=O)c4ccccc4)C21)C3(C)C (stereo not given) + C=CC(=O)N1CCN(c2nc(OCC3CCCN3C)nc3c2CCN(c2cccc4cccc(C)c24)C3)CC1CC#N: 76.4
- CC(=O)OC12COC1CC(O)C1(C)C(=O)C(O)C3=C(C)C(OC(=O)C(O)C(NC(=O)OC(C)(C)C)c4ccccc4)CC(O)(C(OC(=O)c4ccccc4)C21)C3(C)C (stereo not given) + C=CC(=O)N1CCN(c2nc(=O)n(-c3c(C)ccnc3C(C)C)c3nc(-c4c(O)cccc4F)c(F)cc23)C(C)C1: 80.4
- COc1cc(Nc2ncc3c(n2)-c2ccc(Cl)cc2C(c2c(F)cccc2OC)=NC3)ccc1C(=O)O + CNCc1ccccc1-c1csc(C(C)Nc2nc(C)nc3cc(OC)c(OC)cc23)c1: 110
- CC(=O)OC12COC1CC(O)C1(C)C(=O)C(O)C3=C(C)C(OC(=O)C(O)C(NC(=O)OC(C)(C)C)c4ccccc4)CC(O)(C(OC(=O)c4ccccc4)C21)C3(C)C (stereo not given) + COc1cc2nc(C)nc(NC(C)c3cc(N)cc(C(F)(F)F)c3)c2cc1OC1CCOC1: 83.1
- CC1OCC2(CCN(c3cnc(Sc4ccnc(N)c4Cl)c(N)n3)CC2)C1N (stereo not given) + C=CC(=O)N1CCN(c2nc(=O)n(-c3c(C)ccnc3C(C)C)c3nc(-c4c(O)cccc4F)c(F)cc23)C(C)C1: 85.8
- COc1cc2nccc(Oc3ccc(NC(=O)C4(C(=O)Nc5ccc(F)cc5)CC4)cc3)c2cc1OC + COc1cc2nc(C)nc(NC(C)c3cc(N)cc(C(F)(F)F)c3)c2cc1OC1CCOC1: 98.7
- CC(C)n1nc(-c2ccc3oc(N)nc3c2)c2c(N)ncnc21 + C=CC(=O)N1CCN(c2nc(OCC3CCCN3C)nc3c2CCN(c2cccc4cccc(C)c24)C3)CC1CC#N: 55.6
